Please respond with reported normalized RNA/DNA level with ligand (log10) for every item in the list.
B1: library; a variant is named by its letters at N, in order (parent)
chain: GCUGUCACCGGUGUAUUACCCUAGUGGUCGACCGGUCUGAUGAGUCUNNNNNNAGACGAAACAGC

- Variants of: B1
- Protocol description: normalized RNA/DNA level with ligand (relative to sTRSVctl = 100) (log10 (% of sTRSVctl)); ligand: hypoxanthine (xanthine aptamer); higher = less ribozyme self-cleavage, higher mRNA level
- Condition: ligand concentration (+) RNA-Seq: 5 mM, HEK293T, reporter: mCherry (pCS4076), ligand present: yes
Enter a number only.

Form field normalized RNA/DNA level with ligand (log10), entry AGGCCA : 1.96

Form field normalized RNA/DNA level with ligand (log10), entry GUGACG : 1.83

Form field normalized RNA/DNA level with ligand (log10), entry GGCAGG : 1.87

Form field normalized RNA/DNA level with ligand (log10), entry UAACUU : 1.97

Form field normalized RNA/DNA level with ligand (log10), entry GAGGGC : 1.87

Form field normalized RNA/DNA level with ligand (log10), entry AGCGAC : 1.93

Form field normalized RNA/DNA level with ligand (log10), entry UAGCGU : 1.88

Form field normalized RNA/DNA level with ligand (log10), entry UGACAU : 1.94

Form field normalized RNA/DNA level with ligand (log10), entry AUCCGG : 1.95

Form field normalized RNA/DNA level with ligand (log10), entry CAAAGA : 1.93

Form field normalized RNA/DNA level with ligand (log10), entry CUCCCA : 1.99

Form field normalized RNA/DNA level with ligand (log10), entry GGUAGA : 1.89

Form field normalized RNA/DNA level with ligand (log10), entry CAAGAA : 1.89

Form field normalized RNA/DNA level with ligand (log10), entry CGAUAG : 1.86

Form field normalized RNA/DNA level with ligand (log10), entry GAUUGU : 1.94

Form field normalized RNA/DNA level with ligand (log10), entry AAGAAG : 1.55

Form field normalized RNA/DNA level with ligand (log10), entry CUGCGG : 1.96

Form field normalized RNA/DNA level with ligand (log10), entry AUGGCC : 1.96

Form field normalized RNA/DNA level with ligand (log10), entry CGGAAC : 1.85

Form field normalized RNA/DNA level with ligand (log10), entry GACCAU : 1.93

Form field normalized RNA/DNA level with ligand (log10), entry CCAUAU : 1.96

Form field normalized RNA/DNA level with ligand (log10), entry CUUCCA : 1.93

Form field normalized RNA/DNA level with ligand (log10), entry CGAAAA : 1.89

Form field normalized RNA/DNA level with ligand (log10), entry UAAGCC : 1.98

Form field normalized RNA/DNA level with ligand (log10), entry UAGGGC : 1.96

Form field normalized RNA/DNA level with ligand (log10), entry AGCCAA : 1.89

Form field normalized RNA/DNA level with ligand (log10), entry GUGAGC : 1.73

Form field normalized RNA/DNA level with ligand (log10), entry AAGGUG : 1.67

Form field normalized RNA/DNA level with ligand (log10), entry CCUAGG : 1.86

Form field normalized RNA/DNA level with ligand (log10), entry CGGAUC : 2.02

Form field normalized RNA/DNA level with ligand (log10), entry AGUGUA : 1.9

Form field normalized RNA/DNA level with ligand (log10), entry GUUGUG : 1.83

Form field normalized RNA/DNA level with ligand (log10), entry CACGCU : 1.93

Form field normalized RNA/DNA level with ligand (log10), entry AGUAAU : 1.88

Form field normalized RNA/DNA level with ligand (log10), entry GCGGCC : 2

Form field normalized RNA/DNA level with ligand (log10), entry UAUCGC : 1.95

Form field normalized RNA/DNA level with ligand (log10), entry CGUCCC : 1.97

Form field normalized RNA/DNA level with ligand (log10), entry GCUUCG : 1.93

Form field normalized RNA/DNA level with ligand (log10), entry UCCCCC : 1.9

Form field normalized RNA/DNA level with ligand (log10), entry AUAUGU : 1.89

Form field normalized RNA/DNA level with ligand (log10), entry UGUAUA : 1.97

Form field normalized RNA/DNA level with ligand (log10), entry UAUUCG : 1.93

Form field normalized RNA/DNA level with ligand (log10), entry UUAUGG : 1.89

Form field normalized RNA/DNA level with ligand (log10), entry AUACGC : 1.91

Form field normalized RNA/DNA level with ligand (log10), entry AUCCAA : 1.92

Form field normalized RNA/DNA level with ligand (log10), entry CAGAGA : 1.89

Form field normalized RNA/DNA level with ligand (log10), entry AGGUGU : 1.92

Form field normalized RNA/DNA level with ligand (log10), entry AUGAGU : 1.87

The reported numbers originate from the supplement of paper PMC6757056.
